System: SW-620 colon
ASSAY_PROCEDURE: NCI tumour cell line growth inhibition, 48 h
RECORDED_ENDPOINT: TGI

Worked examples follow.
- CCOP1(=O)C=C(Sc2ccc([N+](=O)[O-])cc2[N+](=O)[O-])C(C)(C)O1 (stereo not given): > 52.2 µM
- c1ccc(C(c2ccccc2)[P+](c2ccccc2)(c2ccccc2)c2ccccc2)cc1: 13.2 µM
- COc1cc(Cn2c(=S)ss/c2=N\C(=S)N(C)C)cc(OC)c1OC: > 100 µM

## Task Form field: reported TGI of N#C/C(=C1\NN=C(N)C(c2ccc(Cl)cc2)=C1O)c1ccc(Cl)cc1
## Result > 100 µM

## Task Now the same for N=c1c2c(-c3ccccc3)c(-c3ccccc3)n(Cc3ccccc3)c2ncn1CCCO
## Result 15.5 µM

## Task Now the same for CN1CCN(c2nc(NCCCCNc3ccnc4cc(Cl)ccc34)c3ccccc3n2)CC1
## Result 18.2 µM

###

Below, each of the compounds is paired with its reported TGI value.
System: SK-MEL-2 melanoma
ASSAY_PROCEDURE: NCI tumour cell line growth inhibition, 48 h
Quick note: give the figure in µM, leave out the unit.

Worked examples follow.
- CC1=C(C(=O)Nc2cccc(Cl)c2)C(c2ccc([N+](=O)[O-])cc2)C(C(=O)Nc2cccc(Cl)c2)=C(C)N1: 32.9
- CN(c1ccc(NC(=O)Nc2ccc(OC(F)(F)F)cc2)cc1)c1ccnc(Nc2cccc(S(N)(=O)=O)c2)n1: 9.7
- COC(=O)C1=C(C(=O)OC)C2C(C)=CC(C)=CN2C(C#N)=C(SC)S1 (centres undefined): 45.8
- CN(C)c1ccc(-c2cc(-c3ccc(Nc4nc(Nc5ccccc5)nc(Nc5ccc(Cl)cc5)n4)cc3)nc(N)n2)cc1: 43.5
- NC(=O)c1oc([N+](=O)[O-])c(-c2ccccc2)c1-c1ccccc1: 36.3

## Task Form field: reported TGI of COC(=O)c1cc(-c2cc(OC)c(OC)c(OC)c2)[nH]c1N/N=C/c1c(Cl)cccc1Cl
## Result 17.9

## Task Now the same for C=C[C@H]1CC[C@H]2[C@@H]3CC=C4C[C@@H](OC5OCC(O)C(O)C5O)CC[C@]4(C)[C@H]3CC[C@]12C (some centres undefined)
## Result 34.5

## Task Now the same for O=c1c2cccc3cccc(c4oc5c6cccc7cccc(c(=O)c5c14)c76)c32
## Result 23.3

## Task Now the same for CN(C)CCNC(=O)c1ccc(C(=O)NCCN(C)C)c2nc3ccccc3cc12
## Result 2.57

## Task Now the same for O=C1CCCCC1=C(I)I
## Result 31.8

## Task Now the same for Cc1ccc(NC(=O)c2cc3ccccc3c(N=Nc3ccccc3O)c2O)c(C)c1
## Result 14.9

## Task Now the same for O=c1[nH]nc2ccccc2c1Cl
## Result 33.6

## Task Now the same for COc1ccc(C(=O)COc2cccc(/C=C3\CSc4ccccc4C3=O)c2)cc1
## Result 3.49

###

Test system: MCF7 breast
ASSAY_PROCEDURE: NCI tumour cell line growth inhibition, 48 h; in the data active means GI50 below about 0.43 µM; inactive means the rest
Please state which outcome applies, choosing from Yes (active), No (inactive)

Please review the entries below; each comes with its answer.
- N=c1c2c(-c3ccccc3)c(-c3ccccc3)n(Cc3ccccc3)c2ncn1CCCO: No
- COC(=O)c1cc(-c2cc(OC)c(OC)c(OC)c2)[nH]c1N/N=C/c1c(Cl)cccc1Cl: No
- CCc1cccc2c3c(sc12)C(c1ccc(Cl)cc1)C(C#N)=C(N)O3 (stereo not given): Yes
- O=C1CC(c2ccc3c(c2)OCO3)Nc2cc3c(cc21)OCO3 (stereo not given): Yes

## Task How was Cn1ccnc1C(=O)/C=C/c1ccc(CC(=O)Nc2ccc(S(F)(F)(F)(F)F)cc2)cc1 classified in this test?
## Result No

## Task Now the same for NC(=NC1CCCCCCC1)c1ccc(N2CCN(c3ccc(C(N)=NC4CCCCCCC4)cc3)CC2)cc1
## Result No

## Task Now the same for COc1cc(C(O)c2nc3ccccc3s2)cc(OC)c1OC (stereo not given)
## Result No

## Task Now the same for O=C1c2ccc3c4c5ccc(c24)C(=O)N1CCCOCCCCOCCCNCc1ccc(cc1)CNCCCOCCCCOCCCN(C3=O)C5=O
## Result No

## Task Now the same for COc1ccc(C/C(C)=C(\c2ccc(OCCN3CCOCC3)cc2)c2ccc(OC(=O)Cc3ccccc3)cc2)cc1
## Result No

## Task Now the same for CCCCCCC#Cc1ccccc1C#CCO
## Result No
